All figures here come from patent US20170081400A1.

Recorded TL1A Binding Level (Late) by entry
Molecular target: T1, human TL1A extracellular domain with N-terminal HIS and FLAG tag (human, UniProt O95150 72-251)
T1 construct: the whole entry is named; also called TNFSF15
T1 sequence: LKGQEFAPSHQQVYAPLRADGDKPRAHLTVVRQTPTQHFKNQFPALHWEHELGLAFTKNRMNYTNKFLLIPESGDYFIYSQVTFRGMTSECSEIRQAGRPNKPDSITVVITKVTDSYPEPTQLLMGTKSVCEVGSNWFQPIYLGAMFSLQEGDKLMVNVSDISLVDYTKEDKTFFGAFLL
Experiment: SPR Run 8, antibody on Protein A, TL1A 5 ug/mL, timepoint 590
Give just the number in RU; leave the unit off.

Sample answers from the record:
1. 320-588 (antibody, human IgG1, name in Kabat numbering, V domains shown, full-length human IgG1, lambda) VH: QVQLVQSGAEVKKPGASVKVSCKASGYTFTSYDINWVRQAPGQGLEWMGWLNPNSGYTGYAQKFQGRVTMTADRSTSTAYMELSSLRSEDTAVYYCAREVPETAAFEYWGQGTLVTVSS VL: QSVLTQPPSVSGAPGQRVTISCTSSSSDIGAALGVHWYQQLPGTAPKLLIEGYYNRPSGVPDRFSGSKSGTSASLTITGLLPEDEGDYYCQSYDGTLSALFGGGTKLTVLG    123
2. 320-586 (antibody, human IgG1, name in Kabat numbering, V domains shown, full-length human IgG1, lambda) VH: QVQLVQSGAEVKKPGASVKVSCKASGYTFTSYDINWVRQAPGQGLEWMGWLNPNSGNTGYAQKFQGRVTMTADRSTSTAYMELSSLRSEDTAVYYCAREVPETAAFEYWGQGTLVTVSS VL: QSVLTQPPSVSGAPGQRVTISCTSSSSDIGAGLGVLWYQQLPGTAPKLLIEGYYNRPSGVPDRFSGSKSGTSASLTITGLLPEDEGDYYCQSWDGTLSALFGGGTKLTVLG    103
3. 320-592 (antibody, human IgG1, name in Kabat numbering, V domains shown, full-length human IgG1, lambda) VH: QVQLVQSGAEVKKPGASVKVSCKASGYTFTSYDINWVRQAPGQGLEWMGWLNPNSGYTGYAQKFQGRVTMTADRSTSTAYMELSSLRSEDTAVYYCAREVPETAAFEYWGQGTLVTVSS VL: QSVLTQPPSVSGAPGQRVTISCTSSSSDIGAALGVHWYQQLPGTAPKLLIEGYYNRPSGVPDRFSGSKSGTSASLTITGLLPEDEGDYYCQSWDGTLSALFGGGTKLTVLG    129
4. 320-593 (antibody, human IgG1, name in Kabat numbering, V domains shown, full-length human IgG1, lambda) VH: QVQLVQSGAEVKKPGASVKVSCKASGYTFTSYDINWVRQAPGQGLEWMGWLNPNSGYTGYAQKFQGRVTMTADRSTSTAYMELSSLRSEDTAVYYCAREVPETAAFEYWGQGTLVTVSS VL: QSVLTQPPSVSGAPGQRVTISCTSSSSDIGAGSGVHWYQQLPGTAPKLLIEGYYNRPSGVPDRFSGSKSGTSASLTITGLLPEDEGDYYCQSWDGTLSALFGGGTKLTVLG    124

Q. Sample 320-587 (antibody, name in Kabat numbering, V domains shown, full-length human IgG1, lambda) VH: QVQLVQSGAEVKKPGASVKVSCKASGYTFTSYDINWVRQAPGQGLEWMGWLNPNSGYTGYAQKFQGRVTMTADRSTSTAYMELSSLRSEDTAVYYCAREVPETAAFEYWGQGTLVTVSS VL: QSVLTQPPSVSGAPGQRVTISCTSSSSDIGAGLGVHWYQQLPGTAPKLLIEGYYNRPSGVPDRFSGSKSGTSASLTITGLLPEDEGDYYCQSWDGTLSALFGGGTKLTVLG — what was its TL1A Binding Level (Late)?
A. 122
